Method: Plasma concentrations (PK), Example 1
Assay type: in vivo, human
Assay Context: human, plasma, oral, 50 mg, weight >90 kg, 50 mg QD, Week 1, Trough; read-out: Plasma concentration, Mean
Observable: level at 168 h (ng/mL)
Enter your answer as a number in ng/mL; do not include the unit.

**Query** Which level at 168 h is listed for CC(=O)NCCCC[C@@H]1NC(=O)[C@H](Cc2c[nH]c3c(C)cccc23)NC(=O)[C@H]([C@@H](C)O)NC(=O)[C@H](CC(N)=O)NC(=O)[C@@H](NC(C)=O)C(C)(C)SSC(C)(C)[C@@H](C(=O)N[C@@H](Cc2ccc(OCCN)cc2)C(=O)N[C@@H](Cc2ccc3ccccc3c2)C(=O)NC2(C(=O)N[C@@H](CCC(=O)O)C(=O)N[C@@H](CC(N)=O)C(=O)N[C@@H](Cc3cccnc3)C(=O)N(C)CC(N)=O)CCOCC2)NC1=O [IL-23 receptor antagonist peptide] ?
**Result** 0.073
